System: MDA-N
experimental.protocol: NCI tumour cell line growth inhibition, 48 h
readout.type: TGI (µM)

# compound, measurement.unit, result.qualifier, reported.result
rows = [
    ("O=C(OCc1ccccc1)N1CCNCCNCCN(C(=O)OCc2ccccc2)CCNCC1", "µM", "=", 31.3),
    ("COC(=O)Nc1nc2ccccc2[nH]1", "µM", "=", 11.6),
    ("CCOC(=O)CCC(C(=O)OCC)n1nnc2cc(Nc3c(C)[n+]([O-])c4cc(F)c(OCC)cc4[n+]3[O-])ccc21 (stereo unspecified)", "µM", ">", 100),
    ("CC(C)OC(=S)Nc1ccc(Cl)c(/C=N/OC(C)(C)C)c1", "µM", "=", 42),
    ("CCCCCCCCOc1ccc(/C=C/C2=[N+](CCO)CCO2)cc1", "µM", "=", 12.3),
    ("COC1=CC(=O)N(C)C(O)C1(C#N)OC1OC(CO)C(O)C(O)C1O (stereo unspecified)", "µM", ">", 100),
    ("COc1nc(C#CC2CCCCC2)nc(OC)n1", "µM", "=", 25.2),
    ("C=C1CC(C)(c2cccc(Nc3nc4ccccc4c4occc34)c2)OC1=O (stereo unspecified)", "µM", "=", 18.3),
    ("Cc1cc(S(=O)(=O)/N=C(/NN)Nc2ccc(Cl)cc2)c(S)cc1Cl", "µM", "=", 22.5),
    ("CCCCCC(O)C(O)CCC[C@H](O)[C@H]1CC[C@H]([C@H]2CC[C@H]([C@H](O)CCCCCCCCCCCCC3=C[C@H](C)OC3=O)O2)O1 (stereo partly specified)", "µM", "=", 23.5),
    ("OC(NN=C1CCCC1)(C(F)(F)Cl)C(F)(F)Cl", "µM", ">", 10),
    ("CC(=O)OC[C@H]1On2nnnc2[C@H](OC(C)=O)[C@@H](OC(C)=O)[C@@H]1OC(C)=O", "µM", ">", 100),
    ("CC(C)=CCC[C@@H](C)C1=C(O)C(Nc2ccccc2I)=C(C)C(=O)C1=O", "µM", ">", 75),
    ("CC1(C)Oc2ccc3c(=O)cc(-c4ccccc4)oc3c2C1C(=O)O (stereo unspecified)", "µM", ">", 100),
    ("O=c1c2nc(-c3ccccc3)oc2n(-c2ccccc2)c(=O)n1-c1ccccc1", "µM", ">", 46.4),
    ("NC(=S)NC/C=C/Cl", "µM", ">", 100),
    ("C[C@H](C1CC2(C)OC2(C)C(=O)O1)[C@H]1CC[C@H]2[C@@H]3[C@@H]4O[C@@H]4[C@@]4(O)CC=CC(=O)[C@]4(C)[C@H]3CC[C@]12C (stereo partly specified)", "µM", ">", 50),
    ("Clc1ccc(C2=CCN3CC=C(c4ccc(Cl)cc4)C23)cc1", "µM", "=", 22.7),
    ("NC(=O)CN1C=CCC(C(N)=O)=C1", "µM", ">", 100),
    ("O=C(Nc1nn[nH]n1)c1nc(-c2ccccc2)cc(=O)[nH]1", "µM", ">", 100),
    ("Cc1cc(-c2nc3cccc(O)c3s2)ccc1N", "µM", ">", 100),
]
